Target: HIF-2α (Homo sapiens, UniProt Q99814)
Construct: host or cells: 786-O cells stably transduced with Cignal Lenti HIF Luc Reporter (only the reporter was introduced, not HIF-2α)
Sequence (Q99814 whole entry): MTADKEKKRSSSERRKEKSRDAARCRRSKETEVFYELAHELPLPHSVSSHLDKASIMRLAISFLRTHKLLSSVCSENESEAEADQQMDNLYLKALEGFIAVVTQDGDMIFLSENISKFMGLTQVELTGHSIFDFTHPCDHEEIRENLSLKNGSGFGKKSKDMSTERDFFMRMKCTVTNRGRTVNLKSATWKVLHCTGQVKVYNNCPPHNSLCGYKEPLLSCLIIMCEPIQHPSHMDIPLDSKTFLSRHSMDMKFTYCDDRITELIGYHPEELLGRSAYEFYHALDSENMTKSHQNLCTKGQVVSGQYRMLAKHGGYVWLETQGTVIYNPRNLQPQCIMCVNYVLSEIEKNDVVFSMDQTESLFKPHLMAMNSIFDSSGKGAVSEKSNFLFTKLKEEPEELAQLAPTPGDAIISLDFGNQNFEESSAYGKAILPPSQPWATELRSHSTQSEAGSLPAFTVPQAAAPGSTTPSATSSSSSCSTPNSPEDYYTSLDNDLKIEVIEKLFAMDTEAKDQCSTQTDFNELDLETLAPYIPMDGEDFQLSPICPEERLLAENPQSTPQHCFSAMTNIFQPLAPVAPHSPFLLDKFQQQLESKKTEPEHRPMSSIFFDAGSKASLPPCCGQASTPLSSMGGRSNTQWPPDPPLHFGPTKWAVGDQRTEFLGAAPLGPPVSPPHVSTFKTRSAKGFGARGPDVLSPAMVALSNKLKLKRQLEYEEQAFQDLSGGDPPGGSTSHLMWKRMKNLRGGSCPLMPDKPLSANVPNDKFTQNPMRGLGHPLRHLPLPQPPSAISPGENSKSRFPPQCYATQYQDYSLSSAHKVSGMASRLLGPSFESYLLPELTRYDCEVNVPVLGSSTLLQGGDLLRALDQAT
Assay: HIF-2α luciferase reporter assay in HIF-Luc-786-O cells
Type: cell-based
Details: Table 3, 20 hours incubation
experimental.endpoint: IC50

> print(dat)
                         structure.notation  experimental.endpoint  recorded.value
1  N#Cc1cc(F)cc2c1[C@@H](c1ccc(-c3cnncc3N)c3c1CC(F)(F)[C@H]3O)CC[C@@H]2F                   IC50  100 to 1000 nM
2  Cn1ccnc1-c1ccc([C@H]2CC[C@H](F)c3cc(F)cc(C#N)c32)c2c1[C@H](O)C(F)(F)C2                   IC50  100 to 1000 nM
3  N#Cc1cc(F)cc2c1[C@@H](c1ccc(-c3c(N)cccc3F)c3c1CC(F)(F)[C@H]3O)CC[C@@H]2F                   IC50        < 100 nM
4  N#Cc1cc(F)cc2c1[C@@H](c1ccc(-c3cccn4ccnc34)c3c1CC(F)(F)[C@H]3O)CC[C@@H]2F                   IC50  100 to 1000 nM
5  Cn1ncnc1-c1ccc([C@H]2CC[C@H](F)c3cc(F)cc(C#N)c32)c2c1[C@H](O)C(F)(F)C2                   IC50        < 100 nM

Recorded IC50 for CS(=O)(=O)c1c(N)cc([C@H]2CC[C@H](F)c3cc(F)cc(C#N)c32)c2c1[C@H](O)[C@H](F)C2 , please?
< 100 nM

Follow-up entry: Cc1ncccc1-c1ncc([C@H]2CC[C@H](F)c3cc(F)cc(C#N)c32)c2c1[C@H](O)[C@H](F)C2
100 to 1000 nM

Follow-up entry: Cn1cncc1-c1ccc([C@H]2CC[C@H](F)c3cc(F)cc(C#N)c32)c2c1[C@H](O)C(F)(F)C2
< 100 nM

Follow-up entry: N#Cc1cc(F)cc2c1[C@@H](c1ccc(-c3ncncc3N)c3c1CC(F)(F)[C@H]3O)CC[C@@H]2F
100 to 1000 nM

Follow-up entry: N#Cc1cc(F)cc2c1[C@@H](c1cc(F)c(Cl)c3c1CC(F)(F)[C@H]3O)CC[C@@H]2F
< 100 nM

Follow-up entry: N#Cc1cc(F)cc2c1[C@@H](c1ccc(-n3ccnc3)c3c1CC(F)(F)[C@H]3O)CC[C@@H]2F
< 100 nM

Follow-up entry: Cc1c(-c2c(F)cc([C@H]3C[C@H](F)[C@H](F)c4cc(F)cc(C#N)c43)c3c2[C@H](O)C(F)(F)C3)cnn1C
< 100 nM

Follow-up entry: N#Cc1cc(F)cc2c1[C@@H](c1ccc(Nc3ccccn3)c3c1CC(F)(F)[C@H]3O)CC[C@@H]2F
100 to 1000 nM

Follow-up entry: CS(=O)(=O)c1ccc([C@H]2C[C@H](F)[C@H](F)c3cc(F)cc(C#N)c32)c2c1[C@H](O)[C@H](F)C2
< 100 nM

Follow-up entry: N#Cc1cc(F)cc2c1[C@@H](c1ccc(-c3cccnc3C#N)c3c1CC(F)(F)[C@H]3O)CC[C@@H]2F
< 100 nM

Follow-up entry: Cc1ncc(-c2ccc([C@H]3CC[C@H](F)c4cc(F)cc(C#N)c43)c3c2[C@H](O)C(F)(F)C3)n1C
< 100 nM

Follow-up entry: CS(=O)(=O)c1ccc([C@H]2CC[C@H](F)c3cc(F)cc(C#N)c32)c2c1[C@H](O)[C@@](F)(C#N)C2
< 100 nM

Follow-up entry: Cc1c(C#N)cccc1-c1ccc([C@H]2CC[C@H](F)c3cc(F)cc(C#N)c32)c2c1[C@H](O)C(F)(F)C2
< 100 nM
